Experiment: Chronic DIO Mouse: plasma and brain concentrations
Assay type: in vivo
Details: plasma, oral, DIO mice, 10 mg/kg daily, 2 Hours Post Dose, Day 25, read-out: Plasma Concentration (Std Dev)
Parameter: concentration at 2 h
Number first, unit second.

Report concentration at 2 h for O=C(O)c1cccc(CN2CCC(n3c(C4CC4)nc4ccc(C(c5ccc(Cl)cc5)c5ccc(Cl)cc5)cc43)CC2)c1 [Example 148] please. 3430 ng/mL

###

Give pEC50 for every item shown.
Molecular target: Human CB1R (Cannabinoid receptor 1) (Homo sapiens)
Assay: CB-1 in vitro cAMP (HTRF) assay
Format: cell-based
Settings: HEK cells, cAMP HTRF, 250 nM forskolin; mean where tested more than once; read-out: CB1 HEK_cAMP EC50
Interpret pEC50 as the negative base-10 log of the concentration measured in mol/L.

// fetch Human CB1R (Cannabinoid receptor 1) (Homo sapiens) pEC50 for CC(c1cc(C(=O)O)ccn1)N1CCC(n2c(C3CC3)nc3ccc(C(c4ccc(Cl)cc4)c4ccc(Cl)cc4)cc32)CC1 (stereo not shown) 8.42

Please answer likewise for "CCc1nc2ccc(C(c3ccc(Cl)cc3)c3ccc(Cl)cc3)cc2n1C1CCN(S(=O)(=O)C(F)(F)F)CC1" 8.08

Quick one: "COc1ccc(S(=O)(=O)N2CCC(n3c(C4CC4)nc4ccc(C(c5ccc(Cl)cc5)c5ccc(Cl)cc5)cc43)CC2)cc1C(N)=O" 7.29

Same read-out for "COC(=O)c1cnc(N2CCC(Cn3c(C4CC4)nc4ccc(C(c5ccc(Cl)cc5)c5ccc(Cl)cc5)cc43)CC2)nc1" ? 7.48

Now the same for CCCc1nc2ccc(C(c3ccc(Cl)cc3)c3nccs3)cc2n1C1CCN(C(=O)OCC)CC1 (stereo not shown) 6.41

Try the molecule "NC(=O)c1cncc(CN2CCC(n3c(C4CC4)nc4ccc(C(c5ccc(Cl)cc5)c5ccc(Cl)cc5)cc43)CC2)c1" 8.29

Moving on to "NC(=O)c1cccc(CN2CCC(n3c(C4CC4)nc4ccc(C(c5ccc(Cl)cc5)c5ccc(Cl)cc5)cc43)CC2)n1" 7.92

###

Molecular target: Human CB1R (Cannabinoid receptor 1) (Homo sapiens)
Assay: CB-1 in vitro cAMP (HTRF) assay
Assay type: cell-based
Conditions: HEK cells, cAMP HTRF, 250 nM forskolin; mean where tested more than once; read-out: CB1 HEK_cAMP EC50
Parameter: pEC50
Convention used: pEC50 is expressed as -log10 of the molar concentration.

Which value of pEC50 has been reported for O=C(O)c1ccc(S(=O)(=O)N[C@H]2CC[C@H](n3c(C4CC4)nc4ccc(C(c5ccc(Cl)cc5)c5ccc(Cl)cc5)cc43)CC2)cc1 [Example 21] in the records? 6.60

Now this one: O=C(O)c1ccc(N[C@H]2CC[C@@H](n3c(C4CC4)nc4ccc(C(c5ccc(Cl)cc5)c5ccc(Cl)cc5)cc43)CC2)cc1 [Example 32] 7.40

And what about the compound O=C(O)c1cnc(N2CCC(Cn3c(C4CC4)nc4ccc(C(c5ccc(Cl)cc5)c5ccc(Cl)cc5)cc43)CC2)nc1 [Example 4] ? 8.01

Can you handle O=C(O)c1cccc(CN2CCC(n3c(C4CC4)nc4ccc(C(c5ccc(Cl)cc5)c5ccc(Cl)cc5)cc43)CC2)c1Cl [Example 91] next? 7.49

And O=S(=O)(c1ccc(OC(F)(F)F)cc1)N1CCC(n2c(C3CC3)nc3ccc(C(c4ccc(Cl)cc4)c4ccc(Cl)cc4)cc32)CC1 [Example 279] ? 7.49

###

Record form. Attribute: EC50. Fill in for each entry.
Target: Human CB1R (Cannabinoid receptor 1) (Homo sapiens, UniProt P21554)
Sequence (P21554 whole entry): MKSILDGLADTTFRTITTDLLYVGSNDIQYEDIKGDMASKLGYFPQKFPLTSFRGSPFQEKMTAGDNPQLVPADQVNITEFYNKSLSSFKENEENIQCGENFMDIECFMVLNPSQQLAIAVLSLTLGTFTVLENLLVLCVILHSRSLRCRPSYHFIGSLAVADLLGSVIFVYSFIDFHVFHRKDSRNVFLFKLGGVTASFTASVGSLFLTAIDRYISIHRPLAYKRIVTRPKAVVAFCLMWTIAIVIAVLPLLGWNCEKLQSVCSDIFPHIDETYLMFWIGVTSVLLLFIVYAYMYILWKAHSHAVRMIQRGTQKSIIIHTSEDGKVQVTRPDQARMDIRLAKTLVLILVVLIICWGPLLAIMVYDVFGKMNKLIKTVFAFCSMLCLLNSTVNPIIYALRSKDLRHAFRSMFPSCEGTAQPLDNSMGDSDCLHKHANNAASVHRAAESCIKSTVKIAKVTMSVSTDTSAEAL
Experiment: CB-1 in vitro cAMP (HTRF) assay
Type: cell-based
Details: HEK cells, cAMP HTRF, 250 nM forskolin; mean where tested more than once; read-out: CB1 HEK_cAMP EC50
Supply the numeric figure in nM, leaving out any unit text.

For the compound shown here, NC(=O)c1ccc(S(=O)(=O)N2CCC(n3c(C4CC4)nc4ccc(C(c5ccc(Cl)cc5)c5ccc(Cl)cc5)cc43)CC2)cn1 [Example 238] , give the reported EC50. 1.9

Subsequent entry: O=S(=O)(N1CCC(n2c(C3CC3)nc3ccc(C(c4ccc(Cl)cc4)c4ccc5c(c4)OCO5)cc32)CC1)C(F)(F)F (stereo not shown) [Example 321] 6.2

Again, but for CCOC(=O)N1CCC(n2c(Cl)nc3ccc(C(c4ccc(Cl)cc4)c4nccs4)cc32)CC1 (stereo not shown) [Example 422] 598

Further, for NC(=O)COc1ccc(N2CCC(n3c(C4CC4)nc4ccc(C(c5ccc(Cl)cc5)c5ccc(Cl)cc5)cc43)CC2)cc1 [Example 142] ? 21.5

###

Target: Human CB2R (Cannabinoid receptor 2) (Homo sapiens)
Sequence (P34972 whole entry): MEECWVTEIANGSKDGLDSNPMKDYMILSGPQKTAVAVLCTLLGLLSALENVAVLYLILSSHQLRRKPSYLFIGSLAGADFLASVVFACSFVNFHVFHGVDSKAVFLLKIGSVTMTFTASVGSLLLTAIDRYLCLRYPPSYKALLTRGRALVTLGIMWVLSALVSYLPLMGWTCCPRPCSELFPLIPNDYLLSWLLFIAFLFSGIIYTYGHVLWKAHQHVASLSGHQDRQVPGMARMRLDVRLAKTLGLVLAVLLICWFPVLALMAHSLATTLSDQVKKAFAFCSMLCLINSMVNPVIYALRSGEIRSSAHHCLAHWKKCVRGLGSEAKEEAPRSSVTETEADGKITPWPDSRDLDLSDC
Test: CB-2 in vitro cAMP (HTRF) assay
Settings: HEK cells, cAMP HTRF, 250 nM forskolin; mean where tested more than once; read-out: CB2 HEK_cAMP EC50
Parameter: pEC50
// pEC50 is dimensionless: -log10 of concentration (M)

Name the reported pEC50 value associated with the compound "O=C(O)c1csc(S(=O)(=O)N2CCC(n3c(C4CC4)nc4ccc(C(c5ccc(Cl)cc5)c5ccc(Cl)cc5)cc43)CC2)c1" 5.48

Let us now turn to "O=C(OCc1ccccc1)N1CCC(n2c(C3CC3)nc3ccc(C(c4ccc(Cl)cc4)c4ccc(Cl)cc4)cc32)CC1" 5.92

Please answer likewise for CC(C(O)c1ccccc1)n1c(C2CC2)nc2ccc(C(c3ccc(Cl)cc3)c3ccc(Cl)cc3)cc21 (stereo not drawn) 5.99

Now the compound "O=C(O)c1cccc(N2CCC(n3c(C4CC4)nc4ccc(C(c5ccc(Cl)cc5)c5ccc(Cl)cc5)cc43)CC2)c1" 5.11

// next record "Cc1ccc(C(c2ccc(C)cc2)c2ccc3nc(C4CC4)n(C4CCN(Cc5cccc(C(=O)O)c5)CC4)c3c2)cc1" 5.10

Another compound to check: "O=C(c1nc[nH]n1)N1CCC(n2c(C3CC3)nc3ccc(C(c4ccccc4)c4ccccc4)cc32)CC1" 5.20

"O=C(O)c1cccc(CN2CCC(n3c(C4CC4)nc4ccc(C(c5ccc(Cl)cc5)c5ccc(Cl)cc5)cc43)CC2)c1" , same question. 5.31

Field entry: "O=C(NCCO)c1cccc(CN2CCC(n3c(C4CC4)nc4ccc(C(c5ccc(Cl)cc5)c5ccc(Cl)cc5)cc43)CC2)c1" 5.23

And "NC(=O)c1ccc(CN2CCC(n3c(C4CC4)nc4ccc(C(c5ccc(Cl)cc5)c5ccc(Cl)cc5)cc43)CC2)o1" ? 5.19

"O=C(O)c1ccc(CN2CCC(n3c(C4CC4)nc4ccc(C(c5ccc(Cl)cc5)c5ccc(Cl)cc5)cc43)CC2)cc1" , same question. 5.12

What about this compound? "O=C(NCCO)c1cccc(S(=O)(=O)N2CCC(n3c(C4CC4)nc4ccc(C(c5ccc(Cl)cc5)c5ccc(Cl)cc5)cc43)CC2)c1" 5.24

For "NS(=O)(=O)c1cccc(C(=O)N2CCC(n3c(C4CC4)nc4ccc(C(c5ccc(Cl)cc5)c5ccc(Cl)cc5)cc43)CC2)c1" then? 5.75

Also check CC(c1cccc(C(=O)O)c1)N1CCC(n2c(C3CC3)nc3ccc(C(c4ccc(Cl)cc4)c4ccc(Cl)cc4)cc32)CC1 (stereo not drawn) [Example 87] 5.05

Now the same for "O=C(OC[C@@H](O)[C@H](O)CO)N1CCC(n2c(C3CC3)nc3ccc(C(c4ccc(Cl)cc4)c4ccc(Cl)cc4)cc32)CC1" 5.09

// next record CCc1nc2ccc(C(c3ccc(Cl)cc3)c3ccc(Cl)cc3)cc2n1CC(C)c1ccccc1 (single isomer, unassigned) 5.82

###

Experiment: Mouse Fast PK/BBB: plasma and brain concentration
Assay type: in vivo, Male C57bl/6j mice
Conditions: male, C57bl/6j, mouse, plasma; mice, dose 20 mg/kg oral, 4 hr; read-out: Plasma Mean Conc. ± Std. Dev
Could you please report measured concentration at 4 h for the items listed next?
Param answer (str): number followed by unit.

Field request: concentration at 4 h | item: "O=C(O)c1cccc(S(=O)(=O)N2CCC(n3c(C4CC4)nc4ccc(C(c5ccc(Cl)cc5)c5ccc(Cl)cc5)cc43)CC2)c1" 62.1 ng/mL

// repeat for "CCc1nc2ccc(C(c3ccc(Cl)cc3)c3ccc(Cl)cc3)cc2n1C1CCN(S(=O)(=O)C(F)(F)F)CC1" and report 1600 ng/mL

Note, next up: "O=S(=O)(c1cccc(O)c1)N1CCC(n2c(C3CC3)nc3ccc(C(c4ccc(Cl)cc4)c4ccc(Cl)cc4)cc32)CC1" 436 ng/mL

Then "O=C(O)c1csc(S(=O)(=O)N2CCC(n3c(C4CC4)nc4ccc(C(c5ccc(Cl)cc5)c5ccc(Cl)cc5)cc43)CC2)c1" ? 33.8 ng/mL

Would you mind doing "O=S(=O)(N1CCC(n2c(C3CC3)nc3ccc(C(c4ccc(Cl)cc4)c4ccc(Cl)cc4)cc32)CC1)C(F)(F)F" as well? 2260 ng/mL

Check CCc1nc2ccc(C(c3ccc(Cl)cc3)c3nccs3)cc2n1C1CCN(S(=O)(=O)C(F)(F)F)CC1 (stereo not shown) too. 947 ng/mL

Repeat with "O=S(=O)(N1CCC(n2c(C3CCC3)nc3ccc(C(c4ccc(Cl)cc4)c4ccc(Cl)cc4)cc32)CC1)C(F)(F)F" 2130 ng/mL
